assay: chemical genetic growth profiling, strain panel (AID 1159580);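 note: tested at 20 µM; growth read once vehicle control cultures reached saturation at 30 °C; 1 = growth at the plate median or of vehicle wells; lower values mean less growth of the strain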; details: S. cerevisiae deletion strains, growth OD, locus YOL136C, strain PFK27, stronger effect = lower value
Screen size: about 5,500 compounds; about 2,000 (36%) were called active. Not shown: some 18% with an inconclusive outcome. The list shows a part of the results.
Item-by-item account of normalized growth
readout type: normalized growth

compound	readout number
CC(NC(=S)Nc1ccc(Oc2ccc(Cl)cc2)cc1)c1ccccc1 (stereo unspecified)	0.929
C(=NC(N=Cc1ccccc1)c1ccccc1)c1ccccc1 (stereo unspecified)	0.968
Cc1nn(Cc2cccc(C(=O)O/N=C(/N)c3ccc(Cl)cc3)c2)c(C)c1Br	0.955
CCCCc1ccc(N=CNO)c(C)c1	0.358
COc1ccc(/C(C#N)=C2C=C/C(=N/O)C(Cl)=C\2)cc1	0.894
CSc1nc(Sc2n[nH]c(-c3ccccc3)n2)cc(Sc2n[nH]c(-c3ccccc3)n2)n1	1.03
CCCCCc1ccc(S(=O)(=O)Nc2ncc(C)cc2Br)cc1	0.818
COc1cccc(C(=O)C(C#N)=C(SC)SC)c1	0.301
O=S(=O)(Nc1cc(-c2cccs2)nn1-c1ccc(I)cc1)c1cccc(F)c1	0.925
N#C/C(=C\c1ccc(C(F)(F)F)cc1)c1ccc(O)cc1	0.492
CC(Oc1ccc(Cl)cc1Cl)C(=O)NNC(=S)Nc1ccccc1 (stereo unspecified)	0.938
